subject-of-test: DinB2 (Mycolicibacterium smegmatis, UniProt A0QR77)
Construct: gene dinB
Sequence (A0QR77 entry or part of it): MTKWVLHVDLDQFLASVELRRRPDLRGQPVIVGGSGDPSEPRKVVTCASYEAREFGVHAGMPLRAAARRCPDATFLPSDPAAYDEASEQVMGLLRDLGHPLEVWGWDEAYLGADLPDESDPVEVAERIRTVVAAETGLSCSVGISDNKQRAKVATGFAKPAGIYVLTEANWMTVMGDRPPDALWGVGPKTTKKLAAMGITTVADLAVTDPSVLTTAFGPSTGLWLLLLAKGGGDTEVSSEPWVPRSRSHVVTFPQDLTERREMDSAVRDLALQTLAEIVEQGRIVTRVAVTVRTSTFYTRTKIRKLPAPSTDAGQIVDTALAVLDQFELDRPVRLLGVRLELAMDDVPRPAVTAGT
test-summary: single-turnover primer extension, kobs vs [NTP], one-site fit
Type: biochemical
measurement-setup: mispair: opposite template dC (oligo-dC5 tail); 5 mM MgCl2, 10 mM Tris-HCl pH 7.5, 37 C, 1 uM DinB2, 50 nM 13-mer/18-mer primer-template
readout-name: pKd
Please report pKd as the negative decimal logarithm of the molar concentration, giving only the number.

Exercise: Determine its reported pKd: O=c1ccn([C@@H]2O[C@H](COP(=O)(O)OP(=O)(O)OP(=O)(O)O)[C@@H](O)[C@H]2O)c(=O)[nH]1
Solution: 3.39

---

subject-of-test: DinB2 (Mycolicibacterium smegmatis, UniProt A0QR77)
Construct: gene dinB
test-summary: single-turnover primer extension, kobs vs [NTP], one-site fit
Type: biochemical
measurement-setup: mispair: opposite template dT (oligo-dT5 tail); 5 mM MgCl2, 10 mM Tris-HCl pH 7.5, 37 C, 1 uM DinB2, 50 nM 13-mer/18-mer primer-template
readout-name: Kd (µM)
Report only the number, with the unit µM understood.

Exercise: Determine its reported Kd: Nc1nc2c(ncn2[C@@H]2O[C@H](COP(=O)(O)OP(=O)(O)OP(=O)(O)O)[C@@H](O)[C@H]2O)c(=O)[nH]1
Solution: 386
